Assay: Human liver microsome (HLM) metabolic stability assay
Type: in vitro ADME
Settings: human liver microsomes
Protocol: The 5 time point, high-throughput human liver microsome (HLM) metabolic stability assay is designed to determine in vitro compound metabolism. Compounds are incubated with HLMs at a concentration of 1 uM, at 37° C., for a total of 60 min. The percent of compound remaining at 5, 15, 30, and 60 min is used to calculate the t1/2 (min), CLint (mL/min/kg), CLh (mL/min/kg), and % Qh. […] The plates are analyzed using LC/MS/MS with electron spray ionization (ESI) and the previously determined MRM transitions. […]
recordedMetric: Metabolic stability (Qh %), % hepatic blood flow

Prompt: // query Metabolic stability (Qh %), % hepatic blood flow value for entry CO[C@H]1CN(c2cccc(-c3cccc(C)c3OCc3cc(C)c4c(c3)CCN(C3CCOCC3)C4)n2)CC[C@@H]1C(=O)O [Compound 298]
Completion: 34%

Prompt: Also need CCO[C@@H]1CN(c2nc(-c3cc(C)ccc3OCc3cc(C)c4c(c3F)CCN(C3CCOCC3)C4)cs2)CC[C@@H]1C(=O)O [Compound 269] , thanks.
Completion: <24%

Prompt: What do we get for COC[C@H]1N(c2cccc(-c3cccc(C)c3OCc3cc(C)c4c(c3F)CCN(C3CCOCC3)C4)n2)C[C@@H]2C[C@@]21C(=O)O [Compound 59] ?
Completion: <24%

----------
Settings: 24 h, pH 6.8
Assign Satisfied whenever Solubility (pH 6.8) does not fall below 70 μg/mL; assign Not satisfied whenever it does.

Prompt: Has Cc1cc(COc2c(C)cccc2-c2csc(N3CC[C@@]4(C(=O)O)C[C@H]4C3)n2)cc2c1CN(CC1COCCO1)CC2 (some centres unmarked) a recorded Solubility (pH 6.8) greater than or equal to 70 μg/mL?
Completion: Not satisfied

Prompt: Another compound to check: Cc1cc(COc2c(C)cccc2-c2cccc(N3C[C@@H]4C[C@]4(C(=O)O)C3)n2)cc2c1CN(C1CCOC1)CC2 (some centres unmarked) [Compound 25]
Completion: Not satisfied

Prompt: Same thing, different compound: Cc1c(COc2ccccc2-c2cccc(N3CC[C@@]4(C(=O)O)C[C@H]4C3)n2)ccc2c1CCN(C1CCOCC1)C2
Completion: Not satisfied

Prompt: Ok, now CO[C@@H]1CN(c2nc(-c3cccc(C)c3OCc3cc(C)c4c(c3)CCN(CC3COCCO3)C4)cs2)CC[C@@H]1C(=O)O (some centres unmarked)
Completion: Satisfied

Prompt: Let us now turn to CO[C@H]1CN(c2nc(-c3cccc(C)c3OCc3cc(C)c4c(c3)CCN(CC3COCCO3)C4)cs2)CC[C@H]1C(=O)O (single isomer, unassigned)
Completion: Satisfied

Prompt: Also check Cc1cc(COc2c(C)cccc2-c2cccc(N3C[C@@H]4C[C@]4(C(=O)O)C3)n2)cc2c1CN(C1CCOC1)CC2 (some centres unmarked) [Compound 26]
Completion: Not satisfied

Prompt: Can you check CO[C@@H]1CN(c2cccc(-c3cc(C)ccc3OCc3cc(C)c4c(c3)CCN(C3CCOC3)C4)n2)CC[C@@H]1C(=O)O (some centres unmarked) next?
Completion: Not satisfied

Prompt: // repeat for COC[C@H]1N(c2cccc(-c3cccc(C)c3OCc3cc(C)c4c(c3)CCN(C3CCOC3)C4)n2)C[C@@H]2C[C@@]21C(=O)O (single isomer, unassigned) and report
Completion: Satisfied
